For each of the molecules below, state its IC50.
Tested on: MDAMB435
Assay: Inhibition of Cancer Cell Growth as Measured by Cell Number
Type: cell-based, Human
Settings: Homo sapiens, MDA-MB-435; 48 hours exposure, Sulforhodamine B
Numbers only, in µg/mL.

Please review the entries below; each comes with its answer.
COCCN(CC#CC(=O)Nc1ccc2ncc(C#N)c(Nc3cccc(Br)c3)c2c1)CCOC = 0.2
CN1CCC=C(C(=O)Nc2ccc3ncc(C#N)c(Nc4cccc(Br)c4)c3c2)C1 = 3.19
COCCN(C)CC#CC(=O)Nc1ccc2ncc(C#N)c(Nc3cccc(Br)c3)c2c1 = 0.284

API: the following record is the query input.
Q) # input molecule: COC[C@@H]1CCCN1CC=CC(=O)Nc1cc2c(Nc3ccc(F)c(Cl)c3)c(C#N)cnc2cc1OC.Cl.Cl ; wanted: its IC50
A) 1.74

----------
System: MDAMB435
Test: Inhibition of Cancer Cell Growth as Measured by Cell Number
Format: cell-based, Human
Conditions: Homo sapiens, MDA-MB-435; 48 hours exposure, Sulforhodamine B
For each of the compounds below, state its IC50.
Answers are plain numbers, in µg/mL.

Please review the entries below; each comes with its answer.
COCCOCC#CC(=O)Nc1ccc2ncc(C#N)c(Nc3cccc(Br)c3)c2c1 [Example 72] = 3.5
COC[C@@H]1CCCN1CC#CC(=O)Nc1ccc2ncc(C#N)c(Nc3cccc(Br)c3)c2c1 [Example 79] = 0.3
C=CCN(C)CC#CC(=O)Nc1ccc2ncc(C#N)c(Nc3cccc(Br)c3)c2c1 [Example 77] = 0.1

Please supply IC50 for each of the following items, keeping them in order.
1. COCCN(C)CC=CC(=O)Nc1cc2c(Nc3ccc(F)c(Cl)c3)c(C#N)cnc2cc1OC.Cl.Cl [Example 89]
2. CCOc1c(Nc2ccc3ncc(C#N)c(Nc4cccc(Br)c4)c3c2)c(=O)c1=O [Example 85]
3. COc1cc2ncc(C#N)c(Nc3ccc(F)c(Cl)c3)c2cc1NC(=O)C=CCN1CCCC(CO)C1.Cl (stereo not drawn) [Example 91]

A)
1. 2.07
2. 27.6
3. 1.83

----------
For each of the compounds below, state its pIC50.
Target: epidermal growth factor receptor kinase (Homo sapiens)
Construct: containing the EGFR cDNA encoding amino acids 645 - 1186 preceded by Met-Ala-(His)6
Test: Inhibition of Epidermal Growth Factor Receptor Kinase (EGF-R) using recombinant enzyme
Conditions: averages of the individual determinations
One number for each entry, as −log10 of the molar value.

Please review the entries below; each comes with its answer.
COCCN(CC#CC(=O)Nc1ccc2ncc(C#N)c(Nc3cccc(Br)c3)c2c1)CCOC [Example 75] = 9.40
COc1cc2ncc(C#N)c(Nc3ccc(F)c(Cl)c3)c2cc1NC(=O)C=CCN1CCCC(CO)C1.Cl (centres unmarked) [Example 91, hydrochloride] = 7.82
COc1cc2ncc(C#N)c(Nc3ccc(F)c(Cl)c3)c2cc1NC(=O)C=CCN1CCN(CCO)CC1 [Example 108] = 7.59
COc1cc2ncc(C#N)c(Nc3ccc(F)c(Cl)c3)c2cc1NC(=O)C=CCN1CCC(O)(O)CC1 [Example 119] = 10.30
COc1cc2ncc(C#N)c(Nc3ccc(F)c(Cl)c3)c2cc1NC(=O)C=CCN(CCO)CCO [Example 106] = 7.89
COCCN(C)CC=CC(=O)Nc1cc2c(Nc3ccc(F)c(Cl)c3)c(C#N)cnc2cc1OC.Cl.Cl [Example 89, dihydrochloride] = 8.00

Please supply pIC50 for each of the following items, keeping them in order.
1. COCCN(C)CC#CC(=O)Nc1ccc2ncc(C#N)c(Nc3cccc(Br)c3)c2c1 [Example 76]
2. C=CCN(C)CC#CC(=O)Nc1ccc2ncc(C#N)c(Nc3cccc(Br)c3)c2c1 [Example 77]
3. COc1cc2ncc(C#N)c(Nc3ccc(F)c(Cl)c3)c2cc1NC(=O)C=CCN1CCOCCOCCOCC1 [Example 109]
4. COC[C@@H]1CCCN1CC#CC(=O)Nc1ccc2ncc(C#N)c(Nc3cccc(Br)c3)c2c1 [Example 79]

A)
1: 8.00; 2: 8.22; 3: 8.15; 4: 9.44

----------
Molecular target: Kinase insert Domain containing Receptor (KDR: the catalytic domain of the VEGF receptor) (Homo sapiens, UniProt P35968)
Sequence (P35968 834-1162 limits assumed): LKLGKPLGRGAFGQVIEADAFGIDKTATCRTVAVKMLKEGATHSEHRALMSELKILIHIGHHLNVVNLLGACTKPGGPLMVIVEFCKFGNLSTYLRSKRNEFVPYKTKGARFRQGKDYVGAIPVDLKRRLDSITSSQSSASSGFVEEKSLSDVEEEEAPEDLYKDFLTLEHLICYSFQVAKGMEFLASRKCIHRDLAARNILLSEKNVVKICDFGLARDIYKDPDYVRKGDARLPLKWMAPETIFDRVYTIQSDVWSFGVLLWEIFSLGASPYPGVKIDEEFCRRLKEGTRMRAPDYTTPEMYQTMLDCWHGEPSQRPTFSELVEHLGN
quantityName: IC50

Q) # input molecule: N#Cc1cnc2ccc(NC(=O)C#CCN3CCC4(CC3)OCCO4)cc2c1Nc1cccc(Br)c1 ; wanted: its IC50
A) > 1830 nM

----------
For each of the compounds below, state its pIC50.
Target: Epithelial Cell Kinase (ECK) (Homo sapiens)
Sequence (P29317 24-976, species assumed): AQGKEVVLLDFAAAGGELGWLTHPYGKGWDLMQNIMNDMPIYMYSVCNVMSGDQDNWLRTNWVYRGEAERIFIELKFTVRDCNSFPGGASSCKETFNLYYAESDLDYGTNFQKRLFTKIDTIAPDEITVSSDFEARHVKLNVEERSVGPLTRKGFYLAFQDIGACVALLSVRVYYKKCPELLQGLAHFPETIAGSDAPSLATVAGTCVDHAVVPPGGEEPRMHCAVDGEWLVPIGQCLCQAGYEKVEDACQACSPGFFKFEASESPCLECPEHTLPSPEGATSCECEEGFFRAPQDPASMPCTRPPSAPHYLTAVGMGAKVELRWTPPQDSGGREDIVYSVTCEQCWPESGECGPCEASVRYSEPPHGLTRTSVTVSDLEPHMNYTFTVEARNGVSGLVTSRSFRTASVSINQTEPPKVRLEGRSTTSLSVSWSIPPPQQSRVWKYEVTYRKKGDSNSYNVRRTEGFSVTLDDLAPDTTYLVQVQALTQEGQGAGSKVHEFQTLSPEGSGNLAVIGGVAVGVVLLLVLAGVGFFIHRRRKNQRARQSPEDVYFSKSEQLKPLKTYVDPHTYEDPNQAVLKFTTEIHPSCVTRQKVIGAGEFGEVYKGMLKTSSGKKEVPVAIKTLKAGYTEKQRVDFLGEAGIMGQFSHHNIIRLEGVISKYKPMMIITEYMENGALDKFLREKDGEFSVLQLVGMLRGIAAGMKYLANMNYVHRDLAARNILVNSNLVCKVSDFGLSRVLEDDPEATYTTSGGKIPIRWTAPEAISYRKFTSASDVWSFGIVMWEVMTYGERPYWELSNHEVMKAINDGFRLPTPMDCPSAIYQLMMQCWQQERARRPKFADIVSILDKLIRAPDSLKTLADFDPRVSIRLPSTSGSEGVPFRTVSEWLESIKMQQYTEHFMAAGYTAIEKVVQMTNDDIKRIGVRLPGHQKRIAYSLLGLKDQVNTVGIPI
Experiment: Inhibition of Epithelial Cell Kinase (ECK) tyrosine kinase activity
Type: biochemical
pIC50: −log10 of the molar value.

Please review the entries below; each comes with its answer.
COCCOCC#CC(=O)Nc1ccc2ncc(C#N)c(Nc3cccc(Br)c3)c2c1 [Example 72] = < 4.38
CN1CCC=C(C(=O)Nc2ccc3ncc(C#N)c(Nc4cccc(Br)c4)c3c2)C1 [Example 78] = < 4.67

Please supply pIC50 for each of the following items, keeping them in order.
1. N#Cc1cnc2ccc(NC(=O)C#CCN3CCC4(CC3)OCCO4)cc2c1Nc1cccc(Br)c1 [Example 82]
2. COCOCC#CC(=O)Nc1ccc2ncc(C#N)c(Nc3cccc(Br)c3)c2c1 [Example 74]

A)
1. < 5.74
2. < 4.37

----------
For each of the molecules below, state its inhibition at 2 µg/mL.
Target: erbB2 (Homo sapiens, UniProt P04626)
Sequence (P04626 23-1255): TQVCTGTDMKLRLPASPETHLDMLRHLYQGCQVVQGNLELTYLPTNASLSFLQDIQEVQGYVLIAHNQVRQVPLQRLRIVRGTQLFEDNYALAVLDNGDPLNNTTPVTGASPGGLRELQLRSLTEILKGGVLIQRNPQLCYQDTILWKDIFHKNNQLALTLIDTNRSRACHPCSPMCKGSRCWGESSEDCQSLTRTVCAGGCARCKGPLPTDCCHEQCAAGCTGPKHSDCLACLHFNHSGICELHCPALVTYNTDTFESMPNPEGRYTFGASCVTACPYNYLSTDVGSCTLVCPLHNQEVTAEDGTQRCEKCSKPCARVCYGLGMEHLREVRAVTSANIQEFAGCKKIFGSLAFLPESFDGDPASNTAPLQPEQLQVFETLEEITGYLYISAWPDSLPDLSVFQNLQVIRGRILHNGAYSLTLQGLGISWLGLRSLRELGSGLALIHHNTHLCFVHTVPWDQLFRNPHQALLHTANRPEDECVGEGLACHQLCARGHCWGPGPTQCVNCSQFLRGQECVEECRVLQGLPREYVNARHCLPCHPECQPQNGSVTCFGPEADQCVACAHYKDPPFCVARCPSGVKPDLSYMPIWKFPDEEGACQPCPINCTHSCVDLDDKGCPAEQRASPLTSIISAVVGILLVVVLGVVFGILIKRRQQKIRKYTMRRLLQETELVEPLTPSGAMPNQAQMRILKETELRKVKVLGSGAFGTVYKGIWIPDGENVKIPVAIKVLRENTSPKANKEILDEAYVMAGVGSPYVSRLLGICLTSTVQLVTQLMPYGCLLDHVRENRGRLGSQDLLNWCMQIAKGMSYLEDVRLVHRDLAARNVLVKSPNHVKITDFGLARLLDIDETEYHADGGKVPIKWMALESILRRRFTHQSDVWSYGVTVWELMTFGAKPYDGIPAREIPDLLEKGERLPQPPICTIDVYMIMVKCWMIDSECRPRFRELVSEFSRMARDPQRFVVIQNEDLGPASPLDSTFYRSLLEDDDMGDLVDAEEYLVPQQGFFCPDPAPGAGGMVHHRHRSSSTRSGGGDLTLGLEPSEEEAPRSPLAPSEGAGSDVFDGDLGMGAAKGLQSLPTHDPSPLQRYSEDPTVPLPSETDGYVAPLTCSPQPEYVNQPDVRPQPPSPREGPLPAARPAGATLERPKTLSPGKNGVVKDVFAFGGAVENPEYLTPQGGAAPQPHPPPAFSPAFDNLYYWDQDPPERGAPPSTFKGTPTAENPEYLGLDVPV
Test: erbB2 inhibition at a single concentration
Format: biochemical
Settings: read-out: erbB2 % Inh 2 µg/mL

Please review the entries below; each comes with its answer.
CN1CCC=C(C(=O)Nc2ccc3ncc(C#N)c(Nc4cccc(Br)c4)c3c2)C1 = 53%
CCOc1c(Nc2ccc3ncc(C#N)c(Nc4cccc(Br)c4)c3c2)c(=O)c1=O = 87%
COCOCC#CC(=O)Nc1ccc2ncc(C#N)c(Nc3cccc(Br)c3)c2c1 = 95%

Please supply inhibition at 2 µg/mL for each of the following items, keeping them in order.
1. COCCOCC#CC(=O)Nc1ccc2ncc(C#N)c(Nc3cccc(Br)c3)c2c1
2. C=CCN(C)CC#CC(=O)Nc1ccc2ncc(C#N)c(Nc3cccc(Br)c3)c2c1
3. COCCN(C)CC#CC(=O)Nc1ccc2ncc(C#N)c(Nc3cccc(Br)c3)c2c1

A)
96%
105%
96%

----------
Target: epidermal growth factor receptor kinase (Homo sapiens, UniProt P00533)
Construct: containing the EGFR cDNA encoding amino acids 645 - 1186 preceded by Met-Ala-(His)6
Sequence (P00533 669-1210): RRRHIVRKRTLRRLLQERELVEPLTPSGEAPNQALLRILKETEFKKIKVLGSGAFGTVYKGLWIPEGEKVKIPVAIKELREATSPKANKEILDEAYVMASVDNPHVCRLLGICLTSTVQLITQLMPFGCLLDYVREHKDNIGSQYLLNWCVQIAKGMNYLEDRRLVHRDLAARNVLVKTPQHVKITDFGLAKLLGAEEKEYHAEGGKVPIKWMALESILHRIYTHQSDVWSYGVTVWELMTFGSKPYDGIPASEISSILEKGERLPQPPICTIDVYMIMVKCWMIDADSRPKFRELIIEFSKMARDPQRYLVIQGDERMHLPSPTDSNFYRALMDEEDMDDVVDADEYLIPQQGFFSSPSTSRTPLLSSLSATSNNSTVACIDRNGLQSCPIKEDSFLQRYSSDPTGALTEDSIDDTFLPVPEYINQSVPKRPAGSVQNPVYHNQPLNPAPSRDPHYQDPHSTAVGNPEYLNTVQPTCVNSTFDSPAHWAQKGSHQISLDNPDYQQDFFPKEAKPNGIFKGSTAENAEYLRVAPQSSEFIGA
Experiment: Inhibition of Epidermal Growth Factor Receptor Kinase (EGF-R) using recombinant enzyme
Settings: averages of the individual determinations
For each of the compounds below, state its pIC50.
Answers are plain numbers, as −log10 of the molar value.

Please review the entries below; each comes with its answer.
COCCOCC#CC(=O)Nc1ccc2ncc(C#N)c(Nc3cccc(Br)c3)c2c1 [Example 72] = 8.22
N#Cc1cnc2ccc(NC(=O)C#CCN3CCC4(CC3)OCCO4)cc2c1Nc1cccc(Br)c1 [Example 82] = 7.30
COc1cc2ncc(C#N)c(Nc3ccc(F)c(Cl)c3)c2cc1NC(=O)C=CCN(CC(C)O)CC(C)O (stereo not shown) [Example 115] = 8.30
COc1cc2ncc(C#N)c(Nc3ccc(F)c(Cl)c3)c2cc1NC(=O)C=CCN1CCSCC1 [Example 107] = 6.30
C=CCN(CC=C)CC=CC(=O)Nc1cc2c(Nc3ccc(F)c(Cl)c3)c(C#N)cnc2cc1OC [Example 103] = 8.10
COc1cc2ncc(C#N)c(Nc3ccc(F)c(Cl)c3)c2cc1NC(=O)C=CC[n+]1csc(C)c1 [Example 95] = 8.30

API: the following record is the query input.
Q) # input compound: COc1cc2ncc(C#N)c(Nc3ccc(F)c(Cl)c3)c2cc1NC(=O)C=CC[n+]1cscc1C [Example 96] ; wanted: its pIC50
A) 7.00
